system: U251 CNS; assay: NCI tumour cell line growth inhibition, 48 h
*1 amine or outer side, *2 acyl side, *3 side chain or, on linkers, in order; H or OH if unused. Where a SMILES comes first, the peptide text is derived from it. Bridges are numbered along the chain shown (N, C = ends). [ ]: non-standard residue; d: D form. X59 = COc1c(N[*:1])cccc1C(=O)O[C@H](C(=O)[C@H](C)C(=O)[*:2])C(C)C; X58 = CC(C)C[C@H](C(=O)[*:2])C(C)C(=O)C1CCCN1[*:1]; NMeY = CN[C@@H](Cc1ccc(O)cc1)C(=O)O; Lac = C[C@H](O)C(=O)O
Recorded TGI values for a group of compounds are listed next.
assay.readout: TGI

• COc1cc2oc(-c3cccc(C(=O)Nc4ccc(C)cc4)c3)cc(=O)c2c(OC)c1OC = > 100 µM
• COC(=O)C1=CO[C@@H](OC2OC(CO)C(O)C(O)C2O)[C@@H]2[C@H](C)[C@@H](O)[C@@H](O)[C@]12O (some centres not stated) = > 100 µM
• COCCNC1CCC(=O)c2[nH]c3ccccc3c21 (configuration not stated) = > 100 µM
• CNC1=CC(=O)C2=C(C1=O)C1C3=C(C(=O)C(Br)=C(OC)C3=O)C2c2ccccc21 (configuration not stated) = 4.26 µM
• Nc1ccc(S(=O)(=O)NCCS(=O)(=O)O)cc1 = > 100 µM
• COc1ccc(C[C@H]2C(=O)O[C@H](C)[C@H](NC(=O)[C@@H](CC(C)C)C(C)C(=O)C3CCCN3C(=O)[C@H](C)O)C(=O)Nc3cccc(c3OC)C(=O)O[C@@H](C(C)C)C(=O)[C@H](C)C(=O)N[C@@H](CC(C)C)C(=O)N3CCC[C@H]3C(=O)N2C)cc1 (some centres not stated) (H-[Lac][X58]T[X59]LP[NMeY](Me); ester 3-C) = > 12.5 µM
• CN(C)CCCN1c2ccc(O)cc2Sc2ccc(Cl)cc21 = 21.6 µM
• CNC(=O)OCc1nc(N=[N+]=[N-])n(C)c1COC(=O)NC = > 100 µM
• CC(=O)[O][Hg][CH2]C1(C)COC(C)([CH2][Hg][O]C(C)=O)CO1 (configuration not stated) = 2.79 µM
• CC1=NN(C(=O)CC(=O)Nc2ccc(Cl)cc2)C(=O)C1N=Nc1ccc(S(=O)(=O)c2ccc(N=NC3C(=O)N(C(=O)CC(=O)Nc4ccc(Cl)cc4)N=C3C)cc2)cc1 (configuration not stated) = 59.6 µM
• CC(C(=O)O)C1Nc2ccccc2NC1=O (configuration not stated) = > 100 µM
• COc1ccc(C(c2cc(OC)c(OC)c(OC)c2)N2C(=O)CCC2C(=O)O)cc1 (configuration not stated) = > 100 µM
• O=C(/C=C/c1ccccc1Br)c1ccccc1 = 2.9 µM
• C[C@@H]1CC[C@@H]2[C@@H]1[C@H](OC(=O)c1ccc3ccccc3c1)[C@]1(C3CCCCC3)C[C@@H](OC(=O)CO)[C@@]2(C)O1 = 23 µM
• CC(=O)c1sc2n(C)c(=O)c3ccccc3[n+]2c1C = > 100 µM
• O=C(Nc1nc(-c2ccccc2)cs1)c1cc(O)c(O)c(O)c1 = 21 µM
• COc1ccc2c(c1)C1c3ccccc3CCN1CCC2 (configuration not stated) = > 100 µM
• O=C1O/C(=C(/Cl)c2c3ccccc3cc3ccccc23)c2ccccc21 = > 100 µM
• O=C1Nc2ccc(CN3CCOC3=O)cc2/C1=C/c1cc(CN2CCOCC2)c[nH]1 = > 100 µM
• CC(=O)OC1CC2(O)C(CCC3(C)C(c4ccc(=O)oc4)CCC32O)C2(C)CCC(OC3OC(CO)C(O)C(O)C3O)C=C12 (configuration not stated) = 0.136 µM
• NCCn1cnc2nc(NC(=O)c3ccccc3)[nH]c(=O)c21 = > 100 µM
• O=c1oc2c(cc1-c1ccccc1)C(O)Oc1ccccc1-2 (configuration not stated) = > 100 µM

###

test system: MCF7 breast; test: NCI tumour cell line growth inhibition, 48 h
Short version: TGI at least 30 µM is t, less is f.

* CC(=O)[O][Hg][CH2]C1(C)COC(C)([CH2][Hg][O]C(C)=O)CO1 (stereo not given) | f
* CC(C)(C)OC(=O)NCC(=O)N(CCc1ccc(Cl)c(Cl)c1)CCN1CCCC1 | t
* C=CCN1C(=O)/C(=C/c2ccc(OC)cc2)N=C1SC1OC(COC(C)=O)C(OC(C)=O)C(OC(C)=O)C1OC(C)=O (stereo not given) | t
* CCOc1ccc(NC(=O)c2cc3ccccc3cc2O)cc1 | t
* C[n+]1cc2cc3c(cc2c2ccccc21)OCO3 | f
* C/C(=C1/N=C(c2ccccc2)OC1=O)c1ccccc1 | t
* CSC(=NC#N)S/C=C/C(=O)c1cccc2ccccc12 | t
* COC(=O)/C=C/c1ccc2c(c1)[C@H](C(=O)OC)[C@@H](c1ccc(O)cc1)O2 | t
* C=CC[C@@]12CCC(=O)C=C1CCCC2=O | t
* CC(C)C[C@H]1C(=O)N2CCC[C@H]2[C@]2(O)O[C@](NC(=O)[C@@H]3C=C4c5cccc6[nH]c(Br)c(c56)C[C@H]4N(C)C3)(C(C)C)C(=O)N12 | t
* COC(=O)C1=CO[C@@H](OC2OC(CO)C(O)C(O)C2O)[C@@H]2[C@H](C)[C@@H](O)[C@@H](O)[C@]12O (stereo not given in full) | t
* CCCCCCCCc1ccc(CCC(N)(CO)CO)cc1 | f
* COC1=CC(=O)c2c(n[nH]c2CCNC(=O)OCc2ccccc2)C1=O | f
* COc1ccc(OC)c([N+](=O)[O-])c1-c1nc2sc(C)c(C)n2c1/C=N/N=C(N)N | t
* Cc1ccc(S(=O)(=O)NC(=O)NCC(N)=O)cc1 | t
* O=C1/C(=C/c2ccc(OC(=O)c3ccc(Cl)cc3)cc2)CCC/C1=C\c1ccc(OC(=O)c2ccc(Cl)cc2)cc1 | t
* N#CCCN(CCCN(C(=O)Nc1ccc(NC(=O)N(CCCN(CCC#N)C(N)=O)c2ccccc2)cc1)c1ccccc1)C(N)=O | t

###

system: A498 renal; test: NCI tumour cell line growth inhibition, 48 h
assay.readout: TGI

• NC1=NCC(c2ccccn2)C1c1ccc(F)cc1 (stereo not given) = > 100 µM
• C=CC[C@@]12CCC(=O)C=C1CCCC2=O = > 100 µM
• C/C(=C1/N=C(c2ccccc2)OC1=O)c1ccccc1 = > 100 µM
• O=S1(=O)c2ccccc2-c2nccc3ccnc1c23 = 84.4 µM
• O=C(/C=C/c1ccc(O)cc1)c1cc(-c2cc(CCC(=O)c3ccc(O)cc3O)ccc2O)c(O)cc1O = > 50 µM
• CC(C(=O)O)C1Nc2ccccc2NC1=O (stereo not given) = > 100 µM
• CCCCCCCC(=O)NS(=O)(=O)c1ccccc1 = > 100 µM
• O=[N+]([O-])c1ccc2nc3ccscc-3c2c1 = 53.3 µM
• O=c1[nH]c2cc3[nH]c(=O)c(=O)[nH]c3cc2[nH]c1=O = > 100 µM
• c1ccc2c(-c3cnn4cc(-c5ccc(N6CCNCC6)cc5)cnc34)ccnc2c1 = 2.87 µM
• CC(C)C[C@H]1C(=O)N2CCC[C@H]2[C@]2(O)O[C@](NC(=O)[C@@H]3C=C4c5cccc6[nH]c(Br)c(c56)C[C@H]4N(C)C3)(C(C)C)C(=O)N12 = > 100 µM
• COc1cc(/C=C2\NC(=S)C3Cc4c(OC)c(C)c(OC)c(OC)c4C2N3C)c(OC)c(C)c1OC (stereo not given) = > 100 µM
• Nc1cc(N)cc(Cc2ccccc2)c1 = > 100 µM
• Cc1nc2ccccc2c(=O)n1/N=C(\N=Nc1ccccc1Cl)c1ccccc1 = > 100 µM
• N/N=C(/CC(O)(C(F)(F)F)C(F)(F)F)c1ccccc1 = > 10 µM

###

system: NCI-H226 lung; assay: NCI tumour cell line growth inhibition, 48 h; in the data active means GI50 below about 0.43 µM; inactive means the rest
Possible outcomes: active, inactive

* CNC(C)[C@H]1CCC2C3CCC4C[C@@H](N(C)C(=O)c5ccccc5)CC[C@]4(C)C3CC[C@@]21C (stereo partly drawn) | inactive
* O=C(c1ccccc1)c1ccc(O)c2ncccc12 | inactive
* COc1ccc(Nc2ncc(-c3ccccc3)o2)cc1OC | inactive
* c1ccc2c(-c3cnn4cc(-c5ccc(N6CCNCC6)cc5)cnc34)ccnc2c1 | inactive
* CCOC(=O)Nc1ccc(C(=O)/C=C/c2ccccc2)cc1 | inactive
* O=C(Nc1nc(-c2ccccc2)cs1)c1cc(O)c(O)c(O)c1 | inactive
* CC(=O)OC1CC2(O)C(CCC3(C)C(c4ccc(=O)oc4)CCC32O)C2(C)CCC(OC3OC(CO)C(O)C(O)C3O)C=C12 (stereo not drawn) | active
* CCCC(CCC)Oc1ccc(CCCC2=C(O)c3ccccc3C(=O)C2=O)cc1 | inactive
